# method_summary: absorption spectra measured in solution (λmax, ε, shift Δλmax after thermal cyclization)
# Assay type: physicochemical
# Set-up: unit: nm; negative = hypsochromic shift
# test_conditions: table; shift after thermal cyclization
experimental_readout: Δλmax

compound	experimental_readout	reported_measurement
CCOC(=O)/C(C#N)=C/C(C#N)=C1\NC(CC)Cc2cc(N(C)C)ccc21 (stereo not drawn)	Δλmax	−53
CCOC(=O)/C(C#N)=C/C1=C(Nc2ccc(OC)cc2)CCCC1	Δλmax	−65
CCCCNC1=C(C=C(C#N)C#N)CCC1	Δλmax	−70

---

# method_summary: cyclization temperature Tcyc by Differential Thermal Analysis (DTA)
# Type: physicochemical
# test_conditions: table; DTA
# Protocol: The cyclization temperature Tcyc is determined, for example, by means of Differential Thermal Analysis DTA. In the case of the preferred exothermic cyclization, it corresponds to the maximum of the rearrangement signal. The heating rate in the DTA measurements is, for example, 10° C. per minute. […] cyclization temperature Tcyc: 123° C. (determined using DTA, see description. This also applies to the other examples).

molecule	unit	Tcyc
COc1ccc(Nc2c(C=C(C#N)C#N)c(=O)oc3ccccc23)cc1OC	°C	167
Cc1ccc(N/C=C\c2c(C#N)c(=O)oc3ccccc23)cc1C	°C	157
CCCCN/C=C\c1c(C(=O)OC(C)C)c(=O)oc2cc(OC)c(OC)cc12	°C	81
CCOC(=O)/C(C#N)=C/C1=C(Nc2ccc(OC)cc2)CCCC1	°C	176
Cc1ccc(S(=O)(=O)OCc2c(/C=C\NC3CCCCC3)c3ccccc3oc2=O)cc1	°C	175
CCCCNC1=C(C=C(C#N)C#N)CCC1	°C	174
CCOC(=O)/C(C#N)=C/C(C#N)=C1\NC(CC)Cc2cc(N(C)C)ccc21 (centres unmarked)	°C	207
CCC1Cc2cc(OC)ccc2/C(=C/C=C(\C#N)C(=O)OCCOC)N1 (centres unmarked)	°C	212
CCOC(=O)/C(C#N)=C/C=C1\NCCc2ccccc21	°C	124
N#Cc1c(/C=C\Nc2ccccc2)c2ccc(-n3nccn3)cc2oc1=O	°C	146
CCc1ccc(N/C=C(/Br)c2c(C#N)c(=O)[nH]c3ccc(CC)cc23)cc1	°C	161

All figures here come from patent US20020197561A1.
